- measurement target: human platelets in platelet-rich plasma (Homo sapiens, UniProt P05106+P08514)
- Sequence (P08514 32-1039): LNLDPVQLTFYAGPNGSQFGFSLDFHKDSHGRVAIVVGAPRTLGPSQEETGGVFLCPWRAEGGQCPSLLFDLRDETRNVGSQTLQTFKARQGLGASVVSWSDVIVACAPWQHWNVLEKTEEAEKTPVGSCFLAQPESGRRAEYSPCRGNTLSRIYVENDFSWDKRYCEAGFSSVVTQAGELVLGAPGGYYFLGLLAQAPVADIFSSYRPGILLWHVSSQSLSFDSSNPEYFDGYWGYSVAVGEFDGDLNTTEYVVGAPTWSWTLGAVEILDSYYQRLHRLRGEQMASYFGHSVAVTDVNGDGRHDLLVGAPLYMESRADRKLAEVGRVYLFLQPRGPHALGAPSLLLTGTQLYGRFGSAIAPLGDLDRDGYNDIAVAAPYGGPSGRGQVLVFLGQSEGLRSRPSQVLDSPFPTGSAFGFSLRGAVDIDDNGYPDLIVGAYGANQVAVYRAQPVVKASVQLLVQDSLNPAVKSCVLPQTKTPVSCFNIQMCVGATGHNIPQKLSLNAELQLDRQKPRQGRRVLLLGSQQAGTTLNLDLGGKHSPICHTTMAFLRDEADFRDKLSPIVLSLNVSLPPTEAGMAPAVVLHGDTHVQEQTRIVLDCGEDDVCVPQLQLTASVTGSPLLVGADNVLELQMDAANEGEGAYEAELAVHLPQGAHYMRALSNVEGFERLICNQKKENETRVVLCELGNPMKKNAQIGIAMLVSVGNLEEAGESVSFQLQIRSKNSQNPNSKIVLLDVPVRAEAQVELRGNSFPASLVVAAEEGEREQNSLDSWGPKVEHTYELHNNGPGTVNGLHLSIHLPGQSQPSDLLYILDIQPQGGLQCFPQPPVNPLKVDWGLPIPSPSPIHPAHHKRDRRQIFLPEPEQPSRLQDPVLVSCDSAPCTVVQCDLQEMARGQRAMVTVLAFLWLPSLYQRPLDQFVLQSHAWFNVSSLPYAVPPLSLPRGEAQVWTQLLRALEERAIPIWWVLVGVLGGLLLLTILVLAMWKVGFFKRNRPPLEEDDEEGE
- Sequence (P05106 27-788): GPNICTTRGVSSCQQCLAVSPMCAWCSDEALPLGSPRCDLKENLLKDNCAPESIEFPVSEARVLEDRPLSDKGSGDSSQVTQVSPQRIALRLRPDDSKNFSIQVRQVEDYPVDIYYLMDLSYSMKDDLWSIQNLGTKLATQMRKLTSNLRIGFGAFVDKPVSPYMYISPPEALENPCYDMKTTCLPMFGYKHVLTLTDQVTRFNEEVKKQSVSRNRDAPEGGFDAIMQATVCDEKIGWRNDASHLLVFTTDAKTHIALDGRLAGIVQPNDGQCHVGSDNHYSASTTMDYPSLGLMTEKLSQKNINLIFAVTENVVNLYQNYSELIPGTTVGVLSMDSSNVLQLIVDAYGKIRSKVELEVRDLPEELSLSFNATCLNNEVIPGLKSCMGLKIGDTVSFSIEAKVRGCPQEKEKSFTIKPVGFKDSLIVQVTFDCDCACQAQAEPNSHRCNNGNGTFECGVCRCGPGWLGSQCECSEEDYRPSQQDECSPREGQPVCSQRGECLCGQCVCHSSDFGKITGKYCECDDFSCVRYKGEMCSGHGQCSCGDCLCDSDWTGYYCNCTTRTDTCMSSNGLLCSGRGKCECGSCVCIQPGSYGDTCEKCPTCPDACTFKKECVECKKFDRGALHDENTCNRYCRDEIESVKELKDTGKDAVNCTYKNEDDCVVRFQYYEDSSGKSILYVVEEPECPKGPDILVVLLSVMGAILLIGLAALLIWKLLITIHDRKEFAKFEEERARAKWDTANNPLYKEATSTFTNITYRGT
- test method notes: In-vitro human platelet aggregation in platelet-rich plasma (PRP), ADP-induced
- Type: cell-based
- applied conditions: peptide 10^-4 M
Non-standard residues stand in square brackets, D forms with d. Residues, ends and D or L forms follow the SMILES beside them.
reported endpoint: inhibition at 100 µM (%)

Use the examples below as a reference point.
molecule	inhibition at 100 µM, %
COc1cc(C)c(CC(NC(=O)[C@H](CC(=O)O)NC(=O)CNC(=O)[C@@H](N)CCCNC(=N)N)C(N)=O)c(C)c1 (stereo partly drawn)	53
COc1ccc(C[C@H](NC(=O)[C@H](CC(=O)O)NC(=O)CNC(=O)[C@H](CCCNC(=N)N)NC(C)=O)C(N)=O)cc1 [Ac--RGD(O--methyl-Tyr)--NH2] (Ac-RGDY(Me)-NH2)	100
COc1ccc(C[C@H](NC(=O)[C@H](CC(=O)O)NC(=O)CNC(=O)[C@@H](N)CCCNC(=N)N)C(N)=O)cc1 [RGD(O--methyl-Tyr)--NH2, Arg-Gly-Asp-(O-methyltyrosine)-amide] (H-RGDY(Me)-NH2)	100
COc1ccc(C[C@H](NC(=O)[C@H](CC(=O)O)NC(=O)CNC(=O)CCCCCNC(=N)N)C(N)=O)cc1	100

(P) COc1ccc(C[C@H](NC(=O)[C@H](CC(=O)O)NC(=O)CNC(=O)[C@@H](CCCNC(=N)N)NC(C)=O)C(N)=O)cc1 [Ac--(D-Arg)GD(O--methyl-Tyr)--NH2] (Ac-[dR]GDY(Me)-NH2)
(Q) CC(=O)N[C@@H](CCCNC(=N)N)C(=O)NCC(=O)N[C@@H](CC(=O)O)C(=O)N[C@@H](Cc1ccc(O)cc1)C(N)=O [Ac--RGDY--NH2] (Ac-RGDY-NH2)
For the pair P and Q , which member has the lower inhibition at 100 µM number? I would appreciate it if you answered with the label of your choice.
Q
(Q: 48%, P: 71%)
